- systemUnderTest: HLA-A*0201 (human)
- conditionParameters: remark: other sources report otherwise
Kindly state binding affinity ratio (IC50 of standard peptide / IC50 of test peptide) for each of the entries shown.
Could you keep your reply to the number by itself?

// sample AILSPGALV (modifications not checked) [… (HCV polyprotein position 1890)] , its binding affinity ratio (IC50 of standard peptide / IC50 of test peptide) was 0.0014

// sample CMSADLEVV (modifications not checked) [… (HCV polyprotein position 1653)] , its binding affinity ratio (IC50 of standard peptide / IC50 of test peptide) was 0.0067

// sample DLCGSVFLV (modifications not checked) [… (HCV polyprotein position 279)] , its binding affinity ratio (IC50 of standard peptide / IC50 of test peptide) was 0.0007

// sample NLGKVIDTL (modifications not checked) [… (HCV polyprotein position 118)] , its binding affinity ratio (IC50 of standard peptide / IC50 of test peptide) was 0.0006

// sample NLPGCSFSI (modifications not checked) [… (HCV polyprotein position 168)] , its binding affinity ratio (IC50 of standard peptide / IC50 of test peptide) was 0.0041
